System: KM20L2 colon
Experiment: NCI tumour cell line growth inhibition, 48 h
MEASURED_METRIC: TGI

Lab book: TGI of O=C(CC(=O)C(=O)Nc1ccccc1)CC(c1ccccc1)c1c(O)c2ccccc2oc1=O (configuration not stated) noted as > 100 µM

For CC(=O)[CH-]C(=O)c1ccccc1.CC(=O)[CH-]C(=O)c1ccccc1.COc1cccc([O-])c1[O-].[Ti+4] the molecule record lists TGI as > 100 µM

Entry O=C1c2cccc3cc([N+](=O)[O-])cc(c23)C(=O)N1NC1=NCCN1 — recorded TGI = > 100 µM

Form: molecule = CC12CCC([C@H](N3CCOCC3)/C1=N\OCCN1CCCC1)C2(C)C (some centres not stated) ; TGI = > 100 µM

Record summary for CC1(C)C(c2ccccc2)=NN(O)c2ccccc21 : reported TGI = > 100 µM

// field: TGI; key: C=C[C@@]1(C)CCC2(O)C(CCC3C2(C)CCC[C@@]3(C)COC(=O)CC(=O)OC)C1 (some centres not stated) ; value = 33.6 µM

Query COC(=O)C1CC(=O)CCC1c1ccccc1 (configuration not stated) yields TGI of > 100 µM

Reported TGI of COC(=O)[C@H]1[C@H]2C[C@@H]3c4[nH]c5cc(OC)ccc5c4CCN3C[C@H]2C[C@@H](OC(=O)c2cc(OC)c(OC)c(OC)c2)[C@@H]1OC : 35.3 µM

Input CCOC(=O)c1cc(/C=C/C(C)=C/C(=O)OC)oc1-c1ccccc1 . Output TGI: > 100 µM

TGI in this record for O=C(CC(=O)c1ccc([N+](=O)[O-])cc1)C(=O)Nc1nccs1 : > 100 µM

For reference, reported TGI for CCCCCCCC(=O)OC[C@@H](C[As](=O)(O)O)OC(=O)CCCCCCC stands at 31.2 µM

# TGI of N#CCCN(CCC#N)C(=O)c1cccc(C(=O)N(CCC#N)CCC#N)c1 = > 63.8 µM

Entry N#CC(c1ccc(Cl)cc1)c1c(O)nc2ccc(=N)cc-2n1O (configuration not stated) ; TGI = > 100 µM

Field TGI (entry O=C(C/C(=N\NC(=O)C[n+]1ccccc1)C(=O)Nc1nc2ccc([N+](=O)[O-])cc2s1)CC(c1ccccc1)c1c(O)c2ccccc2oc1=O (configuration not stated) ) reads > 100 µM

Quick note, TGI for Cc1ccc(NC(=O)CC/C(CC(=O)C(C)(C)C)=N/NC(=O)C(N)=O)cc1C landed at > 100 µM

Input CC(C)(C)N/N=C(\Cc1occc(=O)c1O)C(=O)Nc1ccc([N+](=O)[O-])cc1[N+](=O)[O-] . Output TGI: > 100 µM

// recorded TGI for CC1(C)OC(=O)[C@@](C)([C@H](O)c2ccccc2)O1 : > 100 µM
